Assay: Clearance in cynomolgus monkey at 1 mg/kg, iv
Format: ADME, organism-based, Macaca fascicularis
Design: dose 1 mg/kg, route intravenous
Conditions: in vivo
ASSAY ENDPOINT: clearance

Recorded result, CCS(=O)(=O)CCN(C(=O)Cc1ccc(F)c(C(F)(F)F)c1)[C@H](C)c1nc2ncccc2c(=O)n1-c1ccc(OCC(F)(F)F)cc1 , clearance: 14.5 mL/min/kg

---

Target: C-X-C chemokine receptor type 3 (Homo sapiens)
Test: Displacement of [125I]-1P10 from human CXCR3 expressed in PBMC after 2 hrs in RPMI buffer by scintillation counting
ASSAY ENDPOINT: pIC50
Kindly note that pIC50 refers to -log10 of the concentration in mol/L and answer with the value alone.

For orientation, consider the following solved cases.
MOLECULE SMILES | pIC50
CCOc1ccc(-n2c([C@@H](C)N(Cc3cccnc3)C(=O)Cc3ccc(F)c(C(F)(F)F)c3)nc3cccnc3c2=O)cc1 | 6.96
CCOc1ccc(-n2c([C@@H](C)N(C(=O)Cc3ccc(F)c(C(F)(F)F)c3)C3CCOCC3)nc3ncccc3c2=O)cc1 | 8.30
CCOc1ccc(-n2c([C@@H](C)N(Cc3cccnc3)C(=O)Cc3ccc(S(C)(=O)=O)cc3)nc3ccccc3c2=O)cc1 | 6.11
CCOc1ccc(-n2c([C@@H](C)N(Cc3ccc[n+]([O-])c3)C(=O)Cc3ccc(OC(F)(F)F)cc3)nc3ncccc3c2=O)cc1 | 8.40

The observed pIC50 for CCOc1ccc(-n2c([C@@H](C)N(Cc3cccnc3)C(=O)Cc3ccc(F)c(F)c3)nc3ccccc3c2=O)cc1 when tested with C-X-C chemokine receptor type 3 (Homo sapiens) stands at 7.40

Entry CCOc1ccc(-n2c([C@@H](C)N(Cc3cccnc3)C(=O)Cc3cccc(C(F)(F)F)c3)nc3ccccc3c2=O)cc1 , C-X-C chemokine receptor type 3 (Homo sapiens) data, pIC50 value: 7.96

CCOc1ccc(-n2c([C@@H](C)N(Cc3cccnc3)C(=O)Cc3cc(F)c(F)c(F)c3)nc3ccccc3c2=O)cc1 on C-X-C chemokine receptor type 3 (Homo sapiens) gives pIC50 = 8.10

CCOc1ccc(-n2c([C@@H](C)N(C[C@H]3CCCN3C(C)C)C(=O)Cc3ccc(F)c(C(F)(F)F)c3)nc3ncccc3c2=O)cc1 tested on C-X-C chemokine receptor type 3 (Homo sapiens) gave pIC50: 8.70

pIC50 on C-X-C chemokine receptor type 3 (Homo sapiens) for CCOc1ccc(-n2c([C@@H](C)N(Cc3cccnc3)C(=O)CN3CCN(CCC(F)(F)F)CC3)nc3ccccc3c2=O)cc1 is 6.16

Form: item CCOc1ccc(-n2c([C@@H](C)N(Cc3cccnc3)C(=O)Cc3ccc(F)c(C(F)(F)F)c3)nc3cnccc3c2=O)cc1 ; test system C-X-C chemokine receptor type 3 (Homo sapiens); pIC50: 7.49

The compound CCOc1ccc(-n2c([C@@H](C)N(Cc3cccnc3)C(=O)Cn3cnc(C(F)(F)F)c3)nc3ccccc3c2=O)cc1 , tested on C-X-C chemokine receptor type 3 (Homo sapiens), showed pIC50 of 8.15

Record CCOc1ccc(-n2c([C@@H](C)N(C[C@@H]3CCCN3C(C)C)C(=O)Cc3ccc(F)c(C(F)(F)F)c3)nc3ncccc3c2=O)cc1 ; system C-X-C chemokine receptor type 3 (Homo sapiens); pIC50 = 8.30

Known value: C-X-C chemokine receptor type 3 (Homo sapiens) pIC50 of the compound CCOc1ccc(-n2c([C@@H](C)N(C(=O)Cc3ccc(F)c(C(F)(F)F)c3)C3CCN(C(C)=O)CC3)nc3ncccc3c2=O)cc1 equals 8.22

Entry CCOc1ccc(-n2c([C@@H](C)N(Cc3cccnc3)C(=O)Cc3ccc(F)c(C(F)(F)F)c3)nc3ncccc3c2=O)cc1 ; assay system C-X-C chemokine receptor type 3 (Homo sapiens); pIC50 recorded at 8.30

The compound CCOc1ccc(-n2c([C@@H](C)N(Cc3cccnc3)C(=O)Cc3ccc(F)c(C(F)(F)F)c3)nc3nccnc3c2=O)cc1 , tested on C-X-C chemokine receptor type 3 (Homo sapiens), showed pIC50 of 7.38

Test item CCOc1ccc(-n2c([C@@H](C)N(Cc3cccnc3)C(=O)Cc3ccc(C#N)cc3)nc3ccccc3c2=O)cc1 ; C-X-C chemokine receptor type 3 (Homo sapiens); reported pIC50 was 7.68

Reported C-X-C chemokine receptor type 3 (Homo sapiens) pIC50 for item CCOc1ccc(-n2c([C@@H](C)N(C[C@H]3CCCN3)C(=O)Cc3ccc(F)c(C(F)(F)F)c3)nc3ncccc3c2=O)cc1 was 8.70

---

Assay: Mean residence time in dog at 1 mg/kg, iv
Type: ADME, organism-based, Canis lupus familiaris
Design: dose 1 mg/kg, route intravenous
Details: in vivo
ASSAY ENDPOINT: MRT (h)
Express the result in h but write the number alone.

Lookup result for CCS(=O)(=O)CCN(C(=O)Cc1ccc(F)c(C(F)(F)F)c1)[C@H](C)c1nc2ncccc2c(=O)n1-c1ccc(OCC(F)(F)F)cc1 ; measured MRT: 2.5

---

Test: Volume of distribution at steady state in mouse at 0.5 mg/kg, iv
Format: ADME, organism-based
Parameters: dose 0.5 mg/kg, route intravenous
Conditions: in vivo, read-out: Vdss
ASSAY ENDPOINT: Vd (L/kg)
Number only, in L/kg; omit the unit.

Reported Vd ( CCS(=O)(=O)CCN(C(=O)Cc1ccc(F)c(C(F)(F)F)c1)[C@H](C)c1nc2ncccc2c(=O)n1-c1ccc(OCC(F)(F)F)cc1 ) = 0.8

---

Molecular target: UniProtKB P49682
Sequence (P49682 whole entry): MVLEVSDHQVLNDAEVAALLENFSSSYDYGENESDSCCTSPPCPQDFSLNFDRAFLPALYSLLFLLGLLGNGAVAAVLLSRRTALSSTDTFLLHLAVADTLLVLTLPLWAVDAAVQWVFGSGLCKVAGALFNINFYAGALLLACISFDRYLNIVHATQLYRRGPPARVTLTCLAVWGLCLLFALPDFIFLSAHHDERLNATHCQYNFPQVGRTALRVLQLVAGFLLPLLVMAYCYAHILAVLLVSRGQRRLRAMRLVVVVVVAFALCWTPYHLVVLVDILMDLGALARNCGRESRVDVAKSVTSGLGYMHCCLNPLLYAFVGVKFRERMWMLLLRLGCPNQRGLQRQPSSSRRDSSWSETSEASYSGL
Test: Displacement of [125I]-ITAC from human CXCR3 expressed in human PBMC after 2 hrs in RPMI buffer by scintillation counting
ASSAY ENDPOINT: IC50 (nM)
Give your result in nM as a bare value.

Record CCS(=O)(=O)CCN(C(=O)Cc1ccc(F)c(C(F)(F)F)c1)[C@H](C)c1nc2ncccc2c(=O)n1-c1ccc(OCC(F)(F)F)cc1 , field IC50: 1

---

Test: Volume of distribution at steady state in cynomolgus monkey at 1 mg/kg, iv
Assay type: ADME, organism-based, Macaca fascicularis
Set-up: dose 1 mg/kg, route intravenous
Details: in vivo, read-out: Vdss
ASSAY ENDPOINT: Vd

Field Vd (entry CCS(=O)(=O)CCN(C(=O)Cc1ccc(F)c(C(F)(F)F)c1)[C@H](C)c1nc2ncccc2c(=O)n1-c1ccc(OCC(F)(F)F)cc1 ) reads 1.4 L/kg

---

Target: C-X-C chemokine receptor type 3 (Canis lupus familiaris, UniProt Q5KSK8)
Sequence (Q5KSK8 whole entry): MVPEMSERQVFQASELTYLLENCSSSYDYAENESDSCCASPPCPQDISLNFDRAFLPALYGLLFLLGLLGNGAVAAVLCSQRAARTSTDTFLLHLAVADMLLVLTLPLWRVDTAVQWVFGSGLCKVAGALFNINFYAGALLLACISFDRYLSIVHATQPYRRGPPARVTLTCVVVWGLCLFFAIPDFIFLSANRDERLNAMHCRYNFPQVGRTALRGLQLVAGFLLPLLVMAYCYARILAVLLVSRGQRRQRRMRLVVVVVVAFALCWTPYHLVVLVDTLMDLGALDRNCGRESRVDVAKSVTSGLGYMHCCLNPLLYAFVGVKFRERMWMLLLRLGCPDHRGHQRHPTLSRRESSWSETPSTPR
Assay: Displacement of [125I]-IP10 from dog CXCR3 expressed in human PBMC after 2 hrs in RPMI buffer by scintillation counting
ASSAY ENDPOINT: IC50 (nM)
Express it in nM; write the number only.

Item: CCS(=O)(=O)CCN(C(=O)Cc1ccc(F)c(C(F)(F)F)c1)[C@H](C)c1nc2ncccc2c(=O)n1-c1ccc(OCC(F)(F)F)cc1 | IC50: 5

---

Experiment: Volume of distribution at steady state in dog at 1 mg/kg, iv
Format: ADME, organism-based, Canis lupus familiaris
Set-up: dose 1 mg/kg, route intravenous
Conditions: in vivo, read-out: Vdss
ASSAY ENDPOINT: Vd

Reported Vd of CCS(=O)(=O)CCN(C(=O)Cc1ccc(F)c(C(F)(F)F)c1)[C@H](C)c1nc2ncccc2c(=O)n1-c1ccc(OCC(F)(F)F)cc1 : 1.1 L/kg
